- Tested System: Hypoxia-inducible factor 1-alpha (Homo sapiens)
- Sequence (Q16665 whole entry, the tested form may be a part): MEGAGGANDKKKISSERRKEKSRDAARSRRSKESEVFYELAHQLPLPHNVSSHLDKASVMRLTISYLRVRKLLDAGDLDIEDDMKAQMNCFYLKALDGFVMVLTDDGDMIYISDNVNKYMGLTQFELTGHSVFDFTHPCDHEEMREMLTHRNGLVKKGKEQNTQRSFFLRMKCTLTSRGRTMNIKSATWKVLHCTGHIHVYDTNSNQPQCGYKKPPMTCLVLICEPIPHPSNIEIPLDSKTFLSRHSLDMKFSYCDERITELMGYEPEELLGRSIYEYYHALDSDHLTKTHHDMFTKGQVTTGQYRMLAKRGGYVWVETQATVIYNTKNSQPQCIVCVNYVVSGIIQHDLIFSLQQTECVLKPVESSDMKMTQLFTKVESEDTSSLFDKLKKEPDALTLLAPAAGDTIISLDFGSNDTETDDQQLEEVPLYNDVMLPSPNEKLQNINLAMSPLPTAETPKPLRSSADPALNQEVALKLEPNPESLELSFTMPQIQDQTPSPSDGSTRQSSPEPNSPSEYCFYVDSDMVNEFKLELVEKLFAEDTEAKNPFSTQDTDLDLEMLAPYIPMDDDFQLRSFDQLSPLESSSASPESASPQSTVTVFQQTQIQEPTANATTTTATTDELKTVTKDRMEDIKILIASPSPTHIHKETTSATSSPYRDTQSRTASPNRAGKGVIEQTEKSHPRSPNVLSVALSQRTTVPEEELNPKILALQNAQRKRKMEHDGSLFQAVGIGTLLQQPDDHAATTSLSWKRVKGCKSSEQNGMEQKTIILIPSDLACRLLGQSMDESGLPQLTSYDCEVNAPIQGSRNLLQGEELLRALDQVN
- Protocol Text: Displacement of GST-tagged p300-CH1 domain (323 to 423 residues) from synthetic biotinylated HIF-1alpha C-TAD domain (786 to 826 residues) (unknown origin) measured after overnight incubation by fluorescence analysis
Value Kind: IC50 (µM)
Numbers only, in µM.

For every record below, what is its IC50?
1. O=C1C2=C(C3=NCCc4c[nH]c1c43)[C@]1(C=C(Br)[C@H](O)C(Br)=C1)CCN2
2. Cn1c(C[C@H](N)C(=O)O)cnc1S[C@H]1[C@H]2C(=O)C=C3S[C@H]4C[C@]31C1=C(N4)C(=O)c3[nH]cc4c3C1=[N+]2CC4
3. O=C1C=C(S[C@H]2[C@H]3C(=O)C=C4S[C@H]5C[C@]42C2=C(N5)C(=O)c4[nH]cc5c4C2=[N+]3CC5)[C@]2(C=C1Br)CCNC1=C2C2=NCCc3c[nH]c(c32)C1=O

[out]
35.2
2.2
2.4
